Just for reference, ChEMBL document CHEMBL1139692 is where these values come from.

- experiment summary: Cytotoxicity against MT2 cells
- Assay type: cell-based
- test conditions: human

molecule	censoring qualifier	CC50 [µM]
CC(C)=CCOc1cc(Nc2ncccn2)ccc1C#N	=	0.036
COc1cc(OC)nc(Nc2ccc(Cl)c(OCC=C(C)C)c2)n1	=	28
COc1nc(Cl)nc(Nc2ccc(Cl)c(OCC=C(C)C)c2)n1	=	26
Cc1cc(C#N)cc(C)c1Oc1nc(Nc2ccc(C#N)cc2)nc(N)c1Br [ETRAVIRINE]	>	1
COc1nc(Nc2ccc(C#N)c(OCC=C(C)C)c2)nc(OC)n1	>	100
COc1ccnc(Nc2ccc(Cl)c(Oc3ccccc3C)c2)n1	=	13
